Experiment: Long-term accelerated stability test (Test Example 3), sealed in aluminum foil bags
Assay type: physicochemical
Details: 25°C-60%RH, 7 days
Counter-ions that a name gives are not always drawn.
Outcome measure: Purity (%)
Please respond with the number in % and leave the unit unwritten.

Give the measured Purity (%) of Cl.Cl.Cl.Cl.O=C(O)[C@@H](Cc1cccc(CN(CCOc2cccc(C[C@H](C(=O)O)[C@H]3CCNC3)c2)Cc2cccc(C[C@H](C(=O)O)[C@H]3CCNC3)c2)c1)[C@H]1CCNC1 [hydrochloride (1:4) amorphous form] .
99.8

What about this compound? O=C(O)[C@@H](Cc1cccc(CN(CCOc2cccc(C[C@H](C(=O)O)[C@H]3CCNC3)c2)Cc2cccc(C[C@H](C(=O)O)[C@H]3CCNC3)c2)c1)[C@H]1CCNC1 [hydrochloride (1:1) crystal form e]
99.9

Please do the same for O=C(O)[C@@H](Cc1cccc(CN(CCOc2cccc(C[C@H](C(=O)O)[C@H]3CCNC3)c2)Cc2cccc(C[C@H](C(=O)O)[C@H]3CCNC3)c2)c1)[C@H]1CCNC1 [hydrochloride (1:1) amorphous form] as well.
98.8

Okay, and O=C(O)[C@@H](Cc1cccc(CN(CCOc2cccc(C[C@H](C(=O)O)[C@H]3CCNC3)c2)Cc2cccc(C[C@H](C(=O)O)[C@H]3CCNC3)c2)c1)[C@H]1CCNC1 [hydrochloride (1:1) crystal form a] ?
99.9

----------
Assay: Long-term accelerated stability test (Test Example 3), sealed in aluminum foil bags
Format: physicochemical
Details: 25°C-60%RH, 1 month
Structures can show the parent of a compound that is named as a salt.
Purity (%) by entry:

Worked cases, Purity (%) given:
O=C(O)[C@@H](Cc1cccc(CN(CCOc2cccc(C[C@H](C(=O)O)[C@H]3CCNC3)c2)Cc2cccc(C[C@H](C(=O)O)[C@H]3CCNC3)c2)c1)[C@H]1CCNC1 [hydrochloride (1:1) crystal form e] :: 99.9%
O=C(O)[C@@H](Cc1cccc(CN(CCOc2cccc(C[C@H](C(=O)O)[C@H]3CCNC3)c2)Cc2cccc(C[C@H](C(=O)O)[C@H]3CCNC3)c2)c1)[C@H]1CCNC1 [hydrochloride (1:1) crystal form a] :: 99.9%
O=C(O)[C@@H](Cc1cccc(CN(CCOc2cccc(C[C@H](C(=O)O)[C@H]3CCNC3)c2)Cc2cccc(C[C@H](C(=O)O)[C@H]3CCNC3)c2)c1)[C@H]1CCNC1 [hydrochloride (1:1) amorphous form] :: 98.7%

Okay, next one:
Any idea what its Purity (%) is? The molecule is Cl.Cl.Cl.Cl.O=C(O)[C@@H](Cc1cccc(CN(CCOc2cccc(C[C@H](C(=O)O)[C@H]3CCNC3)c2)Cc2cccc(C[C@H](C(=O)O)[C@H]3CCNC3)c2)c1)[C@H]1CCNC1 [hydrochloride (1:4) amorphous form]
99.8%

----------
Test: Long-term accelerated stability test (Test Example 3), sealed in aluminum foil bags
Assay type: physicochemical
Conditions: 25°C-60%RH, 3 months
Where a name gives a salt, the structure may show the parent alone.
Outcome measure: Crystal form

O=C(O)[C@@H](Cc1cccc(CN(CCOc2cccc(C[C@H](C(=O)O)[C@H]3CCNC3)c2)Cc2cccc(C[C@H](C(=O)O)[C@H]3CCNC3)c2)c1)[C@H]1CCNC1 [hydrochloride (1:1) crystal form a] :: Deliquescent
Cl.Cl.Cl.Cl.O=C(O)[C@@H](Cc1cccc(CN(CCOc2cccc(C[C@H](C(=O)O)[C@H]3CCNC3)c2)Cc2cccc(C[C@H](C(=O)O)[C@H]3CCNC3)c2)c1)[C@H]1CCNC1 [hydrochloride (1:4) amorphous form] :: Deliquescent
